Target: WT TALK-2 channels (Homo sapiens)
Sequence (Q96T54 1-332): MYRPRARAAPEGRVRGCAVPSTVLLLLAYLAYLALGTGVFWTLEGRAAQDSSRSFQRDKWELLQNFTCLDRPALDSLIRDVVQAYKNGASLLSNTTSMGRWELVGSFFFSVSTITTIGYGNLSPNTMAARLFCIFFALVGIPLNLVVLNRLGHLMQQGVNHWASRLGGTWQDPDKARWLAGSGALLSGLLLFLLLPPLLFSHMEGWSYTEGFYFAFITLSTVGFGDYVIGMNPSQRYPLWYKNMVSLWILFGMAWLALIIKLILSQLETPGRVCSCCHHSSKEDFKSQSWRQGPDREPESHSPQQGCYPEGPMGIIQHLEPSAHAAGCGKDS
Experiment: Pore blocker inhibition (dose-response, residual currents) in inside-out patches at +40 mV
Format: cell-based
Parameters: expressed in transfected cells; host or cells: Xenopus laevis oocytes (cRNA injection), excised inside-out patches
Conditions: IC50 of TPenA inhibition, pre-activated with 0.2 mM 2-APB; +40 mV
reported.property: pIC50
In simple prose, pIC50 is minus the logarithm base ten of a concentration in moles per litre.

State its pIC50 on WT TALK-2 channels (Homo sapiens): CCCCC[N+](CCCCC)(CCCCC)CCCCC [TPenA, Tetra-pentyl-ammonium chloride]
2.96

* * *

target: TALK-2 L264A mutant channels (Homo sapiens, UniProt Q96T54, L264A); assay: Pore blocker inhibition (dose-response, residual currents) in inside-out patches at +40 mV
reported.property: pIC50
For clarity, pIC50 is expressed as the negative log10 of concentration in mol/L.

Bench note: what pIC50 did CCCCC[N+](CCCCC)(CCCCC)CCCCC [TPenA, Tetra-pentyl-ammonium chloride] show?
3.34

* * *

Biological target: WT TALK-2 channels (Homo sapiens, UniProt Q96T54)
Sequence (Q96T54 1-332): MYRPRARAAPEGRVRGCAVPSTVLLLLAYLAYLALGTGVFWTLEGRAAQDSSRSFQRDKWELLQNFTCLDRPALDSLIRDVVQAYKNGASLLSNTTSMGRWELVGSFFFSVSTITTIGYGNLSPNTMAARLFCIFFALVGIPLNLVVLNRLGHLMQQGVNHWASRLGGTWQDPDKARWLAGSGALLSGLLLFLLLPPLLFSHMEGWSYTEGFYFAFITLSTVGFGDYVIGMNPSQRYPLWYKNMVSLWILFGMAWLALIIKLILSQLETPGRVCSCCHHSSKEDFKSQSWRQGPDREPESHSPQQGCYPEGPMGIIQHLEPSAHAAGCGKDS
Assay: Pore blocker inhibition (dose-response, residual currents) in inside-out patches at +40 mV
Type: cell-based
Parameters: expressed in transfected cells; host or cells: Xenopus laevis oocytes (cRNA injection), excised inside-out patches
Conditions: IC50 of TPenA inhibition, pre-activated with 0.5 mM 2-APB; +40 mV
reported.property: IC50
Provide a numeric answer, followed by its unit.

I am curious: what IC50 value has been reported for CCCCC[N+](CCCCC)(CCCCC)CCCCC [TPenA, Tetra-pentyl-ammonium chloride] ?
225 µM
